- Test system: corn (Zea mays)
- assay_comment: Herbicidal effect test by soil treatment
- Type: in vivo
- conditions_used: crop plant, application amount 0.8 g/a, three weeks after spraying
Form field: herbicidal effect, T (Zea mays) (one value per entry).

Examples with their reported herbicidal effect, T (Zea mays) follow.
[
  {
    "molecule": "CC(C)OC(=O)c1cc(N2C(=O)CC(C(F)(F)F)C(C)C2=O)c(F)cc1Cl (centres unmarked) [1-3]",
    "herbicidal effect, T (Zea mays)": "3 (Growth control rates of 40 to 70%)"
  },
  {
    "molecule": "C#CCN1C(=O)COc2ccc(N3C(=O)CC(C(F)(F)F)CC3=O)cc21 [1-24]",
    "herbicidal effect, T (Zea mays)": "2 (Growth control rates of 20 to 40%)"
  }
]

# query: herbicidal effect, T (Zea mays) of entry O=C1COc2cc(F)c(N3C(=O)CC(C(F)(F)F)CC3=O)cc2N1Cc1ccccc1 [1-27]
1 (Growth control rates of 5 to 20%)
